# tested-system: UniProt P08684
# Sequence (P08684 whole entry): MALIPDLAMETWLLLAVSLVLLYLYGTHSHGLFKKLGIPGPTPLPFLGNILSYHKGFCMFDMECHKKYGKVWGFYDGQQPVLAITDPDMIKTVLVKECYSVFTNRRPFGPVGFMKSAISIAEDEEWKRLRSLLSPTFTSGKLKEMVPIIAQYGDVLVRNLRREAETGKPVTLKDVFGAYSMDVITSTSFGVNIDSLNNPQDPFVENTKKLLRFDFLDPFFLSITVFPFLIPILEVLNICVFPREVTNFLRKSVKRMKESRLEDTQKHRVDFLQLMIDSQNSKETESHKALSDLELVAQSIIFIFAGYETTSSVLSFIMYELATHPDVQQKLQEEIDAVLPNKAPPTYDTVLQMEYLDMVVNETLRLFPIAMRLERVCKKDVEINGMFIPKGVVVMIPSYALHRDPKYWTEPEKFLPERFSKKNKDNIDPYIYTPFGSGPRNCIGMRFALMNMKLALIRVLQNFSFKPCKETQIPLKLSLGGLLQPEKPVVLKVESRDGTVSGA
# test-summary: Drug metabolism assessed as human CYP3A4-mediated compound formation from 20 uM [14C]boceprevir after 120 mins by LC-MS/FSA method relative to total [14C]boceprevir
# Assay type: ADME
# settings: recombinant enzyme, 2 h

- compound: "CC(C)(C)NC(=O)N[C@H](C(=O)N1C[C@H]2[C@@H]([C@H]1C(=O)N[C@H](CC1CCC1)C(=O)C(N)=O)C2(C)C)C(C)(C)C"
  inequality-symbol: "="
  Compound recovery / %: 18.98
- compound: "CC(C)(C)NC(=O)N[C@H](C(=O)N1C[C@H]2[C@@H]([C@H]1C(=O)N[C@@H](CC1CCC1)C(=O)C(N)=O)C2(C)C)C(C)(C)C [BOCEPREVIR]"
  inequality-symbol: "="
  Compound recovery / %: 37.98
- compound: "CC(C)(C)NC(=O)N[C@H](C(=O)N1C[C@H]2[C@@H]([C@H]1C(N)=O)C2(C)C)C(C)(C)C"
  inequality-symbol: "<"
  Compound recovery / %: 4.64
- compound: "CC(C)(C)NC(=O)N[C@H](C(=O)N1C[C@H]2[C@@H]([C@H]1C(=O)O)C2(C)C)C(C)(C)C"
  inequality-symbol: "="
  Compound recovery / %: 0.58
